# Test system: Klebsiella pneumoniae
# assay-details: Inhibitory activity against Klebsiella pneumoniae 35
# Assay type: functional
readout-kind: MIC (µg/mL)

>>> recorded_measurement("CO[C@@]1(NC(=O)Cc2cccs2)C(=O)N2C(C(=O)O)=C(COC(N)=O)CS[C@@H]21 [CEFOXITIN]")
32
>>> recorded_measurement("C[C@H]1COc2c(N3CCN(C)CC3)c(F)cc3c(=O)c(C(=O)O)cn1c23.C[C@H]1COc2c(N3CCN(C)CC3)c(F)cc3c(=O)c(C(=O)O)cn1c23.O [LEVOFLOXACIN]")
4
>>> recorded_measurement("O=C(O)c1cn(C2CC2)c2cc(N3CCNCC3)c(F)cc2c1=O [CIPROFLOXACIN]")
16

----------
# System: Escherichia coli
# assay-details: Inhibitory activity against Escherichia coli 12-1502
# Type: functional
readout-kind: MIC (µg/mL)

>>> recorded_measurement("C[C@H]1COc2c(N3CCN(C)CC3)c(F)cc3c(=O)c(C(=O)O)cn1c23.C[C@H]1COc2c(N3CCN(C)CC3)c(F)cc3c(=O)c(C(=O)O)cn1c23.O")
0.25
>>> recorded_measurement("COc1c(N2C[C@@H]3CCCN[C@@H]3C2)c(F)cc2c(=O)c(C(=O)O)cn(C3CC3)c12")
0.5
>>> recorded_measurement("CCn1cc(C(=O)O)c(=O)c2ccc(C)nc21")
16
>>> recorded_measurement("CC(C)(O/N=C(\\C(=O)N[C@@H]1C(=O)N2C(C(=O)[O-])=C(C[n+]3ccccc3)CS[C@H]12)c1csc(N)n1)C(=O)O")
128
>>> recorded_measurement("CO/N=C(\\C(=O)N[C@@H]1C(=O)N2C(C(=O)O)=C(COC(C)=O)CS[C@H]12)c1csc(N)n1")
64

----------
# Tested on: Escherichia coli
# assay-details: Inhibitory activity against azide-resistant Escherichia coli J53 T12-1183
# Assay type: functional
Measured MIC of individual entries
readout-kind: MIC (mg/L)

>>> recorded_measurement("CO[C@@]1(NC(=O)Cc2cccs2)C(=O)N2C(C(=O)O)=C(COC(N)=O)CS[C@@H]21")
32
>>> recorded_measurement("COc1c(N2C[C@@H]3CCCN[C@@H]3C2)c(F)cc2c(=O)c(C(=O)O)cn(C3CC3)c12")
1
>>> recorded_measurement("CC(C)(O/N=C(\\C(=O)N[C@@H]1C(=O)N2C(C(=O)[O-])=C(C[n+]3ccccc3)CS[C@H]12)c1csc(N)n1)C(=O)O")
128
>>> recorded_measurement("CO/N=C(\\C(=O)N[C@@H]1C(=O)N2C(C(=O)O)=C(COC(C)=O)CS[C@H]12)c1csc(N)n1")
4
>>> recorded_measurement("CCn1cc(C(=O)O)c(=O)c2ccc(C)nc21")
32

----------
Measured MIC of individual entries
# System: Escherichia coli
# assay-details: Inhibitory activity against azide-resistant Escherichia coli J53
# Type: functional
readout-kind: MIC (µg/mL)

>>> recorded_measurement("CC(C)(O/N=C(\\C(=O)N[C@@H]1C(=O)N2C(C(=O)[O-])=C(C[n+]3ccccc3)CS[C@H]12)c1csc(N)n1)C(=O)O [CEFTAZIDIME]")
1
>>> recorded_measurement("CO[C@@]1(NC(=O)Cc2cccs2)C(=O)N2C(C(=O)O)=C(COC(N)=O)CS[C@@H]21 [CEFOXITIN]")
4
>>> recorded_measurement("CCn1cc(C(=O)O)c(=O)c2ccc(C)nc21 [NALIDIXIC ACID]")
8
